The entries below are paired with their reported melting point.

Reference set (5 entries):
[
  {
    "molecule": "Cc1csc2c1c(C(=O)c1ccc(Cl)cc1)cn2C(C)C(=O)O (stereo unspecified)",
    "melting point": "149 °C"
  },
  {
    "molecule": "COCCNc1nc(N)nc(-c2ccccc2)c1-c1ccc(=O)n(C(C)C)n1",
    "melting point": "168 to 170 °C"
  },
  {
    "molecule": "COCc1ccc2c(c1)ncn2-c1cccc(-c2ccccc2)c1",
    "melting point": "70 to 72 °C"
  },
  {
    "molecule": "COCc1cc(N)no1",
    "melting point": "49 to 52 °C"
  },
  {
    "molecule": "Cc1cccc(Nc2ncnc3ccc(-n4cnc5ccccc54)cc23)c1",
    "melting point": "245 to 246 °C"
  }
]

Memo: O=S(=O)(Nc1cccc(OCc2cccc(-c3ccccc3)n2)c1)C(F)(F)F , reported melting point: 115 to 117 °C

Memo: COC(=O)NCC(C)OS(C)(=O)=O (stereo unspecified) , reported melting point: 37 to 40 °C

Memo: C#CCCC(O)=C(C#N)C(=O)Nc1ccc(Cl)c(C)c1 , reported melting point: 147 °C

Memo: O=C1C(Cl)=C(C2CCC(c3ccc(Cl)cc3)CC2)C(=O)c2ccccc21 (stereo unspecified) , reported melting point: 172 to 175 °C

Memo: Cn1c(=O)c2c(C(=O)O)nc(O)n2c2ccccc21 , reported melting point: > 300 °C

Memo: O=C1CCc2cc(-n3ccnc3)ccc21 , reported melting point: 148 to 150 °C

* * *

value type: melting point

Reference set (5 entries):
[
  {
    "molecule": "O=C1CC(c2cccc(-n3ccnc3)c2)=Nc2cc(O)c(-c3ccc(F)cc3)cc2N1",
    "value type": "melting point",
    "result": "250 °C"
  },
  {
    "molecule": "CC(C)n1nc(-c2cc(C(N)=O)c(N)nc2-c2ccccc2)ccc1=O",
    "value type": "melting point",
    "result": "> 250 °C"
  },
  {
    "molecule": "COC(=O)C(=CNc1ccc(O)cc1)C(=O)C=CC1CC=CCC1 (stereo unspecified)",
    "value type": "melting point",
    "result": "151 to 153 °C"
  },
  {
    "molecule": "COCC(=O)Nc1c(C(=O)c2cccc(Cl)c2)[nH]c2cc(Cl)ccc12",
    "value type": "melting point",
    "result": "154 to 155 °C"
  },
  {
    "molecule": "O=[N+]([O-])c1ccc(Oc2ccc(C(F)(F)F)cc2Cl)nc1",
    "value type": "melting point",
    "result": "69 to 72 °C"
  }
]

Would you kindly look at the next entry?
Memo: COc1c(N2CC(C)C(NC3CC3)C(C)C2)c(F)c(N)c2c(=O)c(C(=O)O)cn(C3CC3)c12 (stereo unspecified) , reported melting point: 248 °C

* * *

The entries below are paired with their reported melting point.

Reference set (10 entries):
[
  {
    "molecule": "CC(C)(C)OC(=O)C=Cc1cnc2ccccc2c1",
    "melting point": "128 to 129 °C"
  },
  {
    "molecule": "Cc1c(C(=O)O)ccc2c1C(Cl)C(Cl)CS2(=O)=O (stereo not given)",
    "melting point": "236 to 244 °C"
  },
  {
    "molecule": "Nc1nc2c(s1)CCc1nc3ccccn3c1-2",
    "melting point": "249 °C"
  },
  {
    "molecule": "O=C(OCCN1CCOCC1)c1cn2c(n1)COc1ccccc1-2",
    "melting point": "142 to 143 °C"
  },
  {
    "molecule": "O=C1C2CCCCC2C(=O)N1c1ccncc1 (stereo not given)",
    "melting point": "165 to 168 °C"
  },
  {
    "molecule": "CN(C)CC(=O)Nc1cccc2c1C(=O)c1c-2n[nH]c1-c1ccc(N2CCNCC2)cc1",
    "melting point": "243 °C"
  },
  {
    "molecule": "CN1CCN(CCCc2c[nH]c(-c3ccc(F)cc3)c2-c2ccncc2)CC1",
    "melting point": "190 to 192 °C"
  },
  {
    "molecule": "CCOC(=O)C(O)CCc1ccc(OCCc2nc(-c3ccccc3)oc2C)cc1 (stereo not given)",
    "melting point": "67 to 68 °C"
  },
  {
    "molecule": "CC1=CC2=C(N3CN(O)C=C3N=N2)N(c2ccccc2Cl)C1",
    "melting point": "300 °C"
  },
  {
    "molecule": "c1ccc(-c2ccc(OC3CN(C(c4ccccc4)c4ccccc4)C3)cc2)cc1",
    "melting point": "141 to 142 °C"
  }
]

Memo: C=CC(c1ccccc1)c1c(C)c(OC(C)=O)c(C)c(C)c1O (stereo not given) , reported melting point: 136 to 138 °C

Memo: COC(=O)C[C@H]1[C@H](C(=O)N(C)OC)C(=O)N1C(c1ccccc1)(c1ccccc1)c1ccccc1 , reported melting point: 168 to 169 °C

Memo: O=C(O)Cc1c(-c2ccccc2)nn(-c2ccc(Cl)cc2)c1-c1ccccc1 , reported melting point: 193 to 194 °C

* * *

The entries below are paired with their reported melting point.

Reference set (5 entries):
[
  {
    "compound": "CCc1cn(C2OC(CNC(=O)C(C)Oc3cc(OC)c(Cl)cc3Cl)C(O)C2F)c(=O)[nH]c1=O (stereo not given)",
    "melting point": "151 to 156 °C"
  },
  {
    "compound": "O=C(OCc1ccccc1)C1CCCc2c1c1ccccc1n2C(=O)c1ccc(Cl)cc1 (stereo not given)",
    "melting point": "123 to 124 °C"
  },
  {
    "compound": "Cc1cccc(NC(=O)CN2CCN(c3ccccc3[N+](=O)[O-])CC2)c1",
    "melting point": "172 to 175 °C"
  },
  {
    "compound": "CCCCCCCCCCCCCCOc1ccc(C(N)=O)cc1",
    "melting point": "128 to 130 °C"
  },
  {
    "compound": "Cc1cccc(C)c1NC(=O)N(Cc1ccccc1)CC1(c2ccccc2)CCCC1",
    "melting point": "200 to 202 °C"
  }
]

Memo: O=[N+]([O-])c1oc2ccc(CN3CCN(c4ccccc4)CC3)cc2c1-c1ccccc1 , reported melting point: 155 to 157 °C

Memo: O=S(=O)(c1ccccc1)c1c[nH]c2c(C3CCNCC3)cccc12 , reported melting point: 186 to 190 °C

Memo: CCc1cc2c(cc(C(N)=O)c(=O)n2Cc2ccc(-c3ccccc3-c3nnn(C(c4ccccc4)(c4ccccc4)c4ccccc4)n3)cc2)c(CC)n1 , reported melting point: 162 to 165 °C

Memo: CCCCCCCc1ccc(OC(=O)c2ccc3c(c2N)C(=O)c2ccc(C)c([N+](=O)[O-])c2C3=O)cc1 , reported melting point: 257 to 259 °C

* * *

value type: melting point

Reference set (9 entries):
[
  {
    "compound": "CCOc1ccc(C(=O)C#N)cc1",
    "melting point": "43 °C"
  },
  {
    "compound": "CCN1CN(c2ccc(Cl)cc2)c2ncccc2C1=O",
    "melting point": "100 to 101 °C"
  },
  {
    "compound": "CC1(C)Oc2ccc(C#N)cc2[C@@H](N(C(N)=O)c2ccccc2)[C@@H]1O (relative stereo)",
    "melting point": "226 to 227 °C"
  },
  {
    "compound": "CC(C)NC1=NS(=O)(=O)c2cc(C(=O)O)ccc2N1",
    "melting point": "> 310 °C"
  },
  {
    "compound": "CC1=C(Cc2ccc(NC(=O)OC(C)(C)C)cc2)C(=O)C2C=CC=CC2C1=O (stereo not given)",
    "melting point": "148 to 149 °C"
  },
  {
    "compound": "CC(=O)C1=Cc2cc(Br)ccc2OC1",
    "melting point": "70 °C"
  },
  {
    "compound": "Cc1cc(-c2c[nH]c(C)n2)ccn1",
    "melting point": "115 to 117 °C"
  },
  {
    "compound": "COc1cc(OC)cc(-c2cc(=O)c3ccc(OCC(O)CN4CCN(c5ccccc5)CC4)cc3o2)c1 (stereo not given)",
    "melting point": "195 to 196 °C"
  },
  {
    "compound": "CC(C)(C)OC(=O)Nc1cc(Cl)cc(C(F)(F)F)c1",
    "melting point": "91 to 92 °C"
  }
]

Memo: COc1cc2c(cc1Br)C1=C(c3cccs3)C3CSCCN(C(C)(C)C)C(=O)C3N1CC2 (stereo not given) , reported melting point: 233 to 235 °C

* * *

The entries below are paired with their reported melting point.

[
  {
    "molecule": "CC1=C(C)C(=O)C(CCCCC#CCCCC#CCOC(N)=O)=C(C)C1=O",
    "result": "56 to 57 °C"
  },
  {
    "molecule": "CCCN=C(N)Nc1ccnc(SCCCC(=N)NC#N)n1",
    "result": "210 to 215 °C"
  }
]

Memo: CNC(=O)Nc1ccc2[nH]cc(C3CCN(C)CC3)c2n1 , reported melting point: 229 to 230 °C

Memo: CC(C)(COc1ccccc1)C(=O)c1ccc(Br)cc1 , reported melting point: 73 to 74 °C

Memo: CCN1C(=O)C(C)(C)C(=O)Nc2ccc(C=O)cc21 , reported melting point: 188 to 191 °C

Memo: O=C(O)C(=O)Nc1cccc(NC(=O)C(=O)O)n1 , reported melting point: > 310 °C
